# targetDesc: UniProtKB Q5FAB9
# particulars: read-out: IC50 PBP3; strain ATCC 19424; membrane preparation, 30 min drug then Bocillin FL
experimentalReadout: pIC50
Quick note: pIC50 means taking -log10 of the concentration in moles per liter.

What the record says about CCO/N=C(\C(=O)N[C@@H]1C(=O)N2C(C(=O)[O-])=C(Sc3nc(-c4cc[n+](C)cc4)cs3)CS[C@H]12)c1nsc(N)n1 : pIC50 is 5.50

The compound listed as CC1(C)S[C@@H]2[C@H](NC(=O)[C@H](C(=O)O)c3ccsc3)C(=O)N2[C@H]1C(=O)O has a reported pIC50 of 5.56

----------
Kindly state IC50 for each of the entries shown.
# targetDesc: PBP1 (Neisseria gonorrhoeae)
# Construct: endogenous in cells; host or cells: N. gonorrhoeae ATCC 19424, isolated membrane preparation
# methodNotes: PBP-binding assay (Bocillin FL) in isolated membrane preparations
# particulars: strain ATCC 19424; membrane preparation, 30 min drug then Bocillin FL; read-out: IC50 PBP1 (converted)
Give just the numeric value; µM need not be written.

Reported IC50 for C[C@@H](O)[C@H]1C(=O)N2C(C(=O)O)=C(S[C@@H]3CN[C@H](C(=O)Nc4cccc(C(=O)O)c4)C3)[C@H](C)[C@H]12 [ETP, ertapenem] was 1.01

CO/N=C(\C(=O)N[C@@H]1C(=O)N2C(C(=O)O)=C(CSc3nc(=O)c(=O)[nH]n3C)CS[C@H]12)c1csc(N)n1 [CRO, ceftriaxone] yielded IC50 of 3.37

Item: C[C@@H](O)[C@H]1C(=O)N2C(C(=O)O)=C(S[C@@H]3CN[C@H](CNS(N)(=O)=O)C3)[C@H](C)[C@H]12 [DOR, doripenem] | IC50: 2.69

// sample CO[C@@]1(NC(=O)Cc2cccs2)C(=O)N2C(C(=O)O)=C(COC(N)=O)CS[C@@H]21 [FOX, cefoxitin] , its IC50 was 1.36

Per the records, this compound ( CC1(C)S[C@@H]2[C@H](NC(=O)Cc3ccccc3)C(=O)N2[C@H]1C(=O)O [PenG, penicillin G] ) has IC50 equal to 5.65

Entry under test: C=CC1=C(C(=O)O)N2C(=O)[C@@H](NC(=O)/C(=N\OCC(=O)O)c3csc(N)n3)[C@H]2SC1 [CFM, cefixime] . Its IC50 was 2.03

IC50 reported for this compound C[C@@H](O)[C@H]1C(=O)N2C(C(=O)O)=C(S[C@@H]3CN[C@H](C(=O)N(C)C)C3)[C@H](C)[C@H]12 [MEM, meropenem] : 0.626

Entry under test: CC1(C)[C@H](C(=O)O)N2C(=O)C[C@H]2S1(=O)=O [SUL, sulbactam] . Its IC50 was 236

# IC50 of C[C@@H](O)[C@H]1C(=O)N2C(C(=O)O)=C(SCCN=CN)C[C@H]12 [IPM, imipenem] = 1.34

Item: CC1(C)S[C@@H]2[C@H](/N=C/N3CCCCCC3)C(=O)N2[C@H]1C(=O)O [MEC, amdinocillin] | IC50: 313

----------
# targetDesc: PBP1 (Neisseria gonorrhoeae, UniProt O05131, A375T/F666S)
# Construct: endogenous in cells; host or cells: N. gonorrhoeae ATCC 49226, isolated membrane preparation
# Sequence (O05131 whole entry A375T/F666S): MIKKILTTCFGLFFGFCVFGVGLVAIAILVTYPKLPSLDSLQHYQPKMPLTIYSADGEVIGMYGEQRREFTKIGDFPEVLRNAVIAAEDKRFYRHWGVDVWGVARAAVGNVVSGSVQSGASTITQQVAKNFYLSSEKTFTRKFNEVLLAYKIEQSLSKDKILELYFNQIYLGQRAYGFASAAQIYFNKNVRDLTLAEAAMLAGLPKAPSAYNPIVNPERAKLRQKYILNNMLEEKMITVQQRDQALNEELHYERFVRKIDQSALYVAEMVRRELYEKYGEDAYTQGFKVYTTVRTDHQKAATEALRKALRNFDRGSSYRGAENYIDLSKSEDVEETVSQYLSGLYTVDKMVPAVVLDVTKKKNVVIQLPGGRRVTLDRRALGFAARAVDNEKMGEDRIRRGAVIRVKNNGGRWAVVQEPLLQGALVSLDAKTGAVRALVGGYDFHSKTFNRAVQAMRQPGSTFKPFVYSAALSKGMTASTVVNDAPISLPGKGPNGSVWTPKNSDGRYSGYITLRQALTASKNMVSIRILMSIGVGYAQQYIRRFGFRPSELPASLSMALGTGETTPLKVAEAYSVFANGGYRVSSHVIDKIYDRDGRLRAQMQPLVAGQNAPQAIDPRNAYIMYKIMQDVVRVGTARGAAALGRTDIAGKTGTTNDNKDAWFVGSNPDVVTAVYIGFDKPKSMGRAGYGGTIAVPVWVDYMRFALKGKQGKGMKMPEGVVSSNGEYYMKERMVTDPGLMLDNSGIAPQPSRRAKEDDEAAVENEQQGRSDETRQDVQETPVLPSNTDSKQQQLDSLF
# methodNotes: PBP-binding assay (Bocillin FL) in isolated membrane preparations
# Design: species or system Neisseria gonorrhoeae ATCC 49226
# particulars: IC50 PBP1, strain ATCC 49226; membrane preparation, 30 min drug then Bocillin FL
experimentalReadout: pIC50
The scale used: pIC50 is minus the common logarithm of the concentration in molar units.

# pIC50 (molecule: C[C@@H](O)[C@H]1C(=O)N2C(C(=O)O)=C(S[C@@H]3CN[C@H](CNS(N)(=O)=O)C3)[C@H](C)[C@H]12 ) is 5.59

Lookup result for CO[C@@]1(NC(=O)Cc2cccs2)C(=O)N2C(C(=O)O)=C(COC(N)=O)CS[C@@H]21 ; measured pIC50: 5.67

The reported pIC50 of the molecule C[C@]1(Cn2ccnn2)[C@H](C(=O)O)N2C(=O)C[C@H]2S1(=O)=O was 4.08

Measured pIC50 of C[C@@H](O)[C@H]1C(=O)N2C(C(=O)O)=C(SCCN=CN)C[C@H]12 : 5.57

----------
# targetDesc: PBP2 (Neisseria gonorrhoeae, UniProt P08149, H541N)
# Construct: endogenous in cells; host or cells: N. gonorrhoeae ATCC 19424, isolated membrane preparation
# methodNotes: PBP-binding assay (Bocillin FL) in isolated membrane preparations
# Set-up: species or system Neisseria gonorrhoeae ATCC 19424
# particulars: IC50 PBP2, strain ATCC 19424; membrane preparation, 30 min drug then Bocillin FL
experimentalReadout: IC50 (µM)
Write the number in µM without appending the unit.

C[C@]1(Cn2ccnn2)[C@H](C(=O)O)N2C(=O)C[C@H]2S1(=O)=O has a reported IC50 of 3.56

Just so you know, measured IC50 for CC(C)(O/N=C(\C(=O)N[C@@H]1C(=O)N2C(C(=O)[O-])=C(C[n+]3ccccc3)CS[C@H]12)c1csc(N)n1)C(=O)O came out at 0.0183

// field: IC50; key: NC(=O)[C@@H]1CC[C@@H]2CN1C(=O)N2OS(=O)(=O)O ; value = 441

The compound C[C@@H](O)[C@H]1C(=O)N2C(C(=O)O)=C(SCCN=CN)C[C@H]12 showed IC50 equal to 0.234

Noted for C[C@@H](O)[C@H]1C(=O)N2C(C(=O)O)=C(S[C@@H]3CN[C@H](CNS(N)(=O)=O)C3)[C@H](C)[C@H]12 : its IC50 reads 0.143

# IC50 of CC1(C)S[C@@H]2[C@H](NC(=O)Cc3ccccc3)C(=O)N2[C@H]1C(=O)O = 0.15

The reported IC50 of the compound CC1(C)[C@H](C(=O)O)N2C(=O)C[C@H]2S1(=O)=O was 5.06

For record CC1(C)S[C@@H]2[C@H](NC(=O)C(C(=O)O)c3ccccc3)C(=O)N2[C@H]1C(=O)O (stereo partly shown) the listed IC50 is 0.344

Record Cn1c(N)c(NC(=O)NCCN)c[n+]1CC1=C(C(=O)O)N2C(=O)[C@@H](NC(=O)/C(=N\OC(C)(C)C(=O)[O-])c3nsc(N)n3)[C@H]2SC1 , field IC50: 0.06

Query CO/N=C(\C(=O)N[C@@H]1C(=O)N2C(C(=O)O)=C(COC(C)=O)CS[C@H]12)c1csc(N)n1 yields IC50 of 0.022

The recorded IC50 for CC1(C)S[C@@H]2[C@H](/N=C/N3CCCCCC3)C(=O)N2[C@H]1C(=O)O is 4.09

The compound listed as CCO/N=C(\C(=O)N[C@@H]1C(=O)N2C(C(=O)[O-])=C(Sc3nc(-c4cc[n+](C)cc4)cs3)CS[C@H]12)c1nsc(N)n1 has a reported IC50 of 0.248

For CO[C@@]1(NC(=O)Cc2cccs2)C(=O)N2C(C(=O)O)=C(COC(N)=O)CS[C@@H]21 the compound record lists IC50 as 0.912

The reported value for C=CC1=C(C(=O)O)N2C(=O)[C@@H](NC(=O)/C(=N\OCC(=O)O)c3csc(N)n3)[C@H]2SC1 in terms of IC50 is 0.0221

Recorded result, C[C@@H](O)[C@H]1C(=O)N2C(C(=O)O)=C(S[C@@H]3CN[C@H](C(=O)Nc4cccc(C(=O)O)c4)C3)[C@H](C)[C@H]12 , IC50: 0.0841

----------
# targetDesc: PBP3 (Neisseria gonorrhoeae, UniProt Q5FAB9)
# Sequence (Q5FAB9 22-469): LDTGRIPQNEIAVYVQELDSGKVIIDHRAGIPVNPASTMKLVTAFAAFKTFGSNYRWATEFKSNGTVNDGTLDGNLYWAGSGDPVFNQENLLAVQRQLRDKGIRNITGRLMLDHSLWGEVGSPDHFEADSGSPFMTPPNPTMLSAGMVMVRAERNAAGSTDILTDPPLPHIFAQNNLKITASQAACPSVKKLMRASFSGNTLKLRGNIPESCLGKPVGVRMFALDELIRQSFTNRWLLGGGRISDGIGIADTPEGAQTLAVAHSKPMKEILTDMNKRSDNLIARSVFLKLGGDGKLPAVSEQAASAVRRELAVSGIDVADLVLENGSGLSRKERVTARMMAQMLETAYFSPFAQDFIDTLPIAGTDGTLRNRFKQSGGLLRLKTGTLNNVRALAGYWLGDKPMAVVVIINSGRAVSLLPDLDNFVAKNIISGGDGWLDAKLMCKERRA
# particulars: read-out: IC50 PBP3; strain ATCC 19424; membrane preparation, 30 min drug then Bocillin FL
Response field label takes criterion met when IC50 is strictly below 4 µM and criterion not met in all other cases.

### Prompt Criterion: IC50 strictly below 4 µM. Is it met by C[C@]1(Cn2ccnn2)[C@H](C(=O)O)N2C(=O)C[C@H]2S1(=O)=O ?
### Response criterion not met

### Prompt Lab note: IC50 threshold 4 µM. Does this molecule come in strictly under it? NC(=O)[C@@H]1CC[C@@H]2CN1C(=O)N2OS(=O)(=O)O
### Response criterion not met

### Prompt Say whether its IC50 is strictly beneath 4 µM. Entry: C=CC1=C(C(=O)O)N2C(=O)[C@@H](NC(=O)/C(=N\OCC(=O)O)c3csc(N)n3)[C@H]2SC1
### Response criterion not met

### Prompt Please let me know if CC1(C)S[C@@H]2[C@H](NC(=O)Cc3ccccc3)C(=O)N2[C@H]1C(=O)O shows IC50 below 4 µM.
### Response criterion met

### Prompt Confirm or reject: IC50 of O=C(NC1CCNCC1)[C@@H]1CC[C@@H]2CN1C(=O)N2OS(=O)(=O)O lies strictly below 4 µM
### Response criterion met

### Prompt Could you please tell me whether IC50 recorded for CO/N=C(\C(=O)N[C@@H]1C(=O)N2C(C(=O)O)=C(COC(C)=O)CS[C@H]12)c1csc(N)n1 is less than 4 µM?
### Response criterion met

### Prompt Just wondering, is IC50 of CC1(C)[C@H](C(=O)O)N2C(=O)C[C@H]2S1(=O)=O below 4 µM?
### Response criterion not met
